Biological target: D(3) dopamine receptor (Homo sapiens) (UniProt P35462)
Sequence (P35462 whole entry, looked up): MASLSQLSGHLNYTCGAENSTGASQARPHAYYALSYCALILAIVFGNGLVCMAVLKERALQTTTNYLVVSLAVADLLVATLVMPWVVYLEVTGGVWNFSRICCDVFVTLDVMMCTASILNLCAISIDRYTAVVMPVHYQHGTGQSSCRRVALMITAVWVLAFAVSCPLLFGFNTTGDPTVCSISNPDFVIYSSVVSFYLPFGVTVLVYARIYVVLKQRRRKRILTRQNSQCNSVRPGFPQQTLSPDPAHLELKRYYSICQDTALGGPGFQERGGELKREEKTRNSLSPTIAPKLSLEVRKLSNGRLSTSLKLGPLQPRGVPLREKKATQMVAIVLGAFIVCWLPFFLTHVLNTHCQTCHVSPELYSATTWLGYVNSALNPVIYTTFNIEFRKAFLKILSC
Experiment: qHTS of D3 Dopamine Receptor Antagonist: qHTS; further: on the % scale 0 is the no-effect control and ±100 the full control effect
Conditions: D3R cells, DiscoveRx beta-arrestin luminescence, antagonist mode; active compounds read low
Protocol: D3 DARs represent a very important target for the treatment of several neuropsychiatric disorders. Indeed, one of the most promising therapeutic applications for the D3 DAR is in the area of addiction and related disorders. […] Freshly passaged cells are plated in 1536 well white, solid bottom plates at a density of 1500 cells/well in 3microl of complete media. […] Following incubation, luminescence is measured on a ViewLux CCD-based luminometer reader using a 20 sec exposure time.
Hit rate of the full screen: of about 360,000 compounds, about 9,100 (2.5%) were called active. Inconclusive results (about 4%) are left out. Only a selection was taken, and actives are over-represented in it overall.
observed.property: max response, negative = inhibition (%)
Write it as a number; the unit % goes unstated.

Below, 10 compounds whose answers are already recorded.
# compound, numeric.result
rows = [
    ("Cc1ccccc1-c1n[nH]c(=S)n1/N=C/c1ccc(-c2ccccc2Br)o1", -16.9),
    ("Cc1n[nH]c(=S)n1/N=C/c1ccc(Br)o1", -55),
    ("COc1ccc(NS(=O)(=O)c2ccc(Oc3c(C#N)cccc3C#N)cc2)cc1", 0.938),
    ("O=C(CSc1nc2cccc(F)c2c(=O)n1-c1ccccc1)Nc1ccc2c(c1)CCC2", -3.93),
    ("CNc1ccc([N+](=O)[O-])cc1C(=O)O", -6.53),
    ("Brc1ccc2nc(-c3ccccc3)c(Cc3ccccc3)n2c1", 23.1),
    ("CCN(CC)c1ccc([N+](=O)[O-])cc1C(=O)O", 9.06),
    ("O=C1c2ccccc2C(c2nc3ccccc3[nH]2)N1c1ccccc1 (stereo unspecified)", 6.4),
    ("O=C(O)c1ccc([N+](=O)[O-])cc1Sc1ccsc1", -56.7),
    ("CC(=O)c1cccc(-c2cnc3c(NC=O)cc(-c4ccc(N5CCN(C)CC5)cc4)cn23)c1", 13.5),
]

Then there is this compound:
*Q* Value lookup for max response, negative = inhibition; key = `COc1cc(/C=N/n2c(C)n[nH]c2=S)ccc1OCc1ccccc1`
*A* 4.09

###

Molecular target: D(3) dopamine receptor (Homo sapiens)
Assay: qHTS of D3 Dopamine Receptor Antagonist: qHTS; further: on the % scale 0 is the no-effect control and ±100 the full control effect
Conditions: D3R cells, DiscoveRx beta-arrestin luminescence, antagonist mode
Experimental: D3 DARs represent a very important target for the treatment of several neuropsychiatric disorders. Indeed, one of the most promising therapeutic applications for the D3 DAR is in the area of addiction and related disorders. […] Freshly passaged cells are plated in 1536 well white, solid bottom plates at a density of 1500 cells/well in 3microl of complete media. […] Following incubation, luminescence is measured on a ViewLux CCD-based luminometer reader using a 20 sec exposure time.
Screen size: about 360,000 compounds; about 9,100 (2.5%) were called active. About 4% were inconclusive and are not listed. Cut-off read from the data, not from the text of the source: active = max response below about -50%; inconclusive = no clear call, values can overlap the other calls; inactive = above that. This is one part of a sample in which actives are shown more often than they occur.
Select the matching outcome among active, inactive

For orientation, consider the following solved cases.
# chemical.string, class.name
rows = [
    ("Oc1ccccc1/C=N/n1c(-c2cccs2)n[nH]c1=S", "active"),
    ("Fc1ccccc1/C=N/n1c(-c2cccnc2)n[nH]c1=S", "inactive"),
    ("COc1ccc(-c2cc(NC=O)c3ncc(-c4cccc(C(=O)N(C)C)c4)n3c2)c(OC)c1", "inactive"),
    ("COc1ccc(N2CCN(C(=O)c3cccs3)CC2)cc1", "inactive"),
]

Now look at this one.
*Q* Please state the recorded outcome for this molecule: `C[C@H]1CN([C@@H](C)CO)C(=O)c2cc(-c3cccc(F)c3)cnc2O[C@@H]1CN(C)S(C)(=O)=O`
*A* inactive

###

Measured max response, negative = inhibition values are reported for all entries that follow.
Target: D(3) dopamine receptor (Homo sapiens)
Assay: qHTS of D3 Dopamine Receptor Antagonist: qHTS; further: on the % scale 0 is the no-effect control and ±100 the full control effect
Details: D3R cells, DiscoveRx beta-arrestin luminescence, antagonist mode; active compounds read low
Method: D3 DARs represent a very important target for the treatment of several neuropsychiatric disorders. Indeed, one of the most promising therapeutic applications for the D3 DAR is in the area of addiction and related disorders. […] Freshly passaged cells are plated in 1536 well white, solid bottom plates at a density of 1500 cells/well in 3microl of complete media. […] Following incubation, luminescence is measured on a ViewLux CCD-based luminometer reader using a 20 sec exposure time.
In all, about 360,000 compounds went through this assay and about 9,100 (2.5%) were called active. About 4% were inconclusive and are not listed. What follows is part of a selection rich in actives, with near analogues and random picks from the rest.

# molecule, max response, negative = inhibition
data = [
    ("CC(C)(C)c1ccc(C(=O)N2CCC(C(=O)N3CCCCC3)CC2)cc1", "7.98% (inactive)"),
    ("COc1ccccc1NC(=O)C(CC(=O)O)Cc1cc(C)cc(C)c1 (stereo not drawn)", "-7.58% (inactive)"),
]

*Q* Value lookup for max response, negative = inhibition; key = `Cc1cc(C)c2nc(N(CCN(C)C)C(=O)/C=C/c3cccs3)sc2c1`
*A* -2.22% (inactive)

*Q* Value lookup for max response, negative = inhibition; key = `COc1ccc(-c2cc(NC=O)c3ncc(-c4ccccc4)n3c2)cc1OC`
*A* -15.4% (inactive)

*Q* Value lookup for max response, negative = inhibition; key = `N#C/C(=C(/O)Cc1cccc2ccccc12)c1nc2ccccc2s1`
*A* -26.8% (inactive)

*Q* Value lookup for max response, negative = inhibition; key = `CCOC(=O)c1cc(NC(=O)c2cccnc2)ccn1`
*A* -0.585% (inactive)

*Q* Value lookup for max response, negative = inhibition; key = `O=C(/C=C/c1ccc(Cl)c([N+](=O)[O-])c1)c1ccc(O)cc1`
*A* -79.6% (active)

*Q* Value lookup for max response, negative = inhibition; key = O=C(NCC(O)c1nc2ccccc2[nH]1)c1ccc(Br)cc1 (stereo not drawn)
*A* -3.7% (inactive)

*Q* Value lookup for max response, negative = inhibition; key = `O=C(Cn1c(=O)sc2ccccc21)Nc1ccc2c(c1)OCCO2`
*A* 7.52% (inactive)

*Q* Value lookup for max response, negative = inhibition; key = `CN1CCN(/N=C2/C(=O)Nc3ccc([N+](=O)[O-])cc32)CC1`
*A* -3.16% (inactive)

*Q* Value lookup for max response, negative = inhibition; key = `COc1ccccc1C1=CC(=O)C[C@H](c2ccc(F)cc2)C1`
*A* -18.2% (inactive)

*Q* Value lookup for max response, negative = inhibition; key = COC(=O)C1=CN(c2c(C)cc(C)cc2C)C(N)=C(C#N)C1c1cccc(F)c1 (stereo not drawn)
*A* 2.73% (inactive)

*Q* Value lookup for max response, negative = inhibition; key = `COc1ccccc1NC(=O)C1CCN(C(=O)c2ccc(C(C)(C)C)cc2)CC1`
*A* -52% (active)

*Q* Value lookup for max response, negative = inhibition; key = `O=C(Nc1cccc(Cc2ccccc2)c1)Nc1ccc2nc([C@@H]3O[C@H](CO)[C@@H](O)[C@H](O)[C@H]3O)[nH]c2c1`
*A* 32.8% (inactive)

###

Measured max response, negative = inhibition values are reported for all entries that follow.
target: D(3) dopamine receptor (Homo sapiens) (UniProt P35462); assay: qHTS of D3 Dopamine Receptor Antagonist: qHTS; conditions: D3R cells, DiscoveRx beta-arrestin luminescence, antagonist mode; active compounds read low; further: on the % scale 0 is the no-effect control and ±100 the full control effect
Among all 360,000 compounds or so, about 9,100 (2.5%) were called active. About 4% were inconclusive and are not listed. Only a selection was taken, and actives are over-represented in it overall.
Write it as a number; the unit % goes unstated.

Below, 6 compounds whose answers are already recorded.
# compound, max response, negative = inhibition (%)
measured = [
    ("c1ccc2c(c1)nnn2-c1ccncc1", -16.5),
    ("C[C@@H]1CN([C@H](C)CO)S(=O)(=O)c2ccc(C#CC3CCCCC3)cc2O[C@H]1CN(C)C(=O)Cc1ccncc1", -18.9),
    ("CC1=C(C(=O)N2CCOCC2)CC(CC(=O)NCCCN(C)C)C(=O)N1Cc1ccc(C(C)(C)C)cc1 (stereo not drawn)", 35.5),
    ("CN1CCN(S(=O)(=O)c2ccc(N3CCN(c4ccccc4O)CC3)c([N+](=O)[O-])c2)CC1", -19.5),
    ("CC(Oc1ccccc1[N+](=O)[O-])C(=O)N/N=C/c1ccoc1 (stereo not drawn)", -27.6),
    ("COC(=O)c1ccccc1N=NNc1ccc([N+](=O)[O-])cc1", 8.12),
]

*Q* max response, negative = inhibition of `O=C(N/N=C/c1ccoc1)c1ccc(Cl)cc1Cl` on D(3) dopamine receptor (Homo sapiens) (UniProt P35462)?
*A* 9.92

*Q* max response, negative = inhibition of `CC(C)Cc1ccc(-c2cc3nc(NCc4cccc(Cl)c4)ccn3n2)cc1` on D(3) dopamine receptor (Homo sapiens) (UniProt P35462)?
*A* 16.3

*Q* max response, negative = inhibition of `NC(=O)c1ccc(CN2CCC(Cc3ccccc3)CC2)cc1` on D(3) dopamine receptor (Homo sapiens) (UniProt P35462)?
*A* -23.1

*Q* max response, negative = inhibition of CC1(C(=O)NS(=O)(=O)c2ccc3ccccc3c2)CCN1C(=O)C1(c2ccc(Cl)cc2)CCC1 (stereo not drawn) on D(3) dopamine receptor (Homo sapiens) (UniProt P35462)?
*A* -21.3

*Q* max response, negative = inhibition of `Brc1ccc(CN2CC[C@H]3C=CCc4cccc(c43)C2)cc1` on D(3) dopamine receptor (Homo sapiens) (UniProt P35462)?
*A* -107

*Q* max response, negative = inhibition of CC1(C(=O)NS(=O)(=O)c2ccc(C#N)cc2)CCN1C(=O)CC1CCCC1 (stereo not drawn) on D(3) dopamine receptor (Homo sapiens) (UniProt P35462)?
*A* -19

*Q* max response, negative = inhibition of `CCCCC[C@H](C)N1C[C@@H](COCc2ccccc2)Oc2cc(N3CCC[C@@H]3CO)ccc2S1(=O)=O` on D(3) dopamine receptor (Homo sapiens) (UniProt P35462)?
*A* 8.76
